The values you see were collected from ChEMBL document CHEMBL3774325.

Item-by-item account of pIC50
Target: Cocaine esterase (Homo sapiens)
Sequence (O00748 whole entry): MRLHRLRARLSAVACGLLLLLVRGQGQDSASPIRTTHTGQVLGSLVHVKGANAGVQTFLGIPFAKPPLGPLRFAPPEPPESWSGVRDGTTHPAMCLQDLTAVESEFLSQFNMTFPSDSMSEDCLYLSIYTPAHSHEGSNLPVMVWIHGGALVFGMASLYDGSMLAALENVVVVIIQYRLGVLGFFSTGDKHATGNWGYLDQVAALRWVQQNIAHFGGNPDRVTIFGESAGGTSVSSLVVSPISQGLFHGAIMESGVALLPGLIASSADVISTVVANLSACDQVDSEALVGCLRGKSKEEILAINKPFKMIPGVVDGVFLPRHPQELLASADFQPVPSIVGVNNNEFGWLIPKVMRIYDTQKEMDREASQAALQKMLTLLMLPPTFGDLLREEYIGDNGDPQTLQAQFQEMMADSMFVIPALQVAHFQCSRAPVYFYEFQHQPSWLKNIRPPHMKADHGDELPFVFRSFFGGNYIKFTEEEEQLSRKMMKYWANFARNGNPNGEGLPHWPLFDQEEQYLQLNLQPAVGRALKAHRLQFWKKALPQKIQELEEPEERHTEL
The read-out pIC50 is expressed as -log10 of concentration in moles per litre.

Use the examples below as a reference point.
[[record]]
record_smiles = "CN(C)CCOC(=O)[C@@]1(C)CC[C@]2(C)CC[C@]3(C)C(=CC(=O)[C@@H]4[C@@]5(C)CC[C@H](O)C(C)(C)[C@@H]5CC[C@]43C)[C@@H]2C1"
recorded_metric = "pIC50"
recorded_number = 5.40

[[record]]
record_smiles = "COC(=O)[C@@]1(C)CC[C@]2(C)CC[C@]3(C)C(=CC(=O)[C@@H]4[C@@]5(C)CC[C@H](O)C(C)(C)[C@@H]5CC[C@]43C)[C@@H]2C1"
recorded_metric = "pIC50"
recorded_number = 5.25

[[record]]
record_smiles = "CC(=O)O[C@H]1CC[C@]2(C)[C@H]3C(=O)C=C4[C@@H]5C[C@@](C)(C(=O)OCCN(C)C)CC[C@]5(C)CC[C@@]4(C)[C@]3(C)CC[C@H]2C1(C)C"
recorded_metric = "pIC50"
recorded_number = 5.47


Endpoint output: pIC50 of CCOC(=O)[C@@]1(C)CC[C@]2(C)CC[C@]3(C)C(=CC(=O)[C@@H]4[C@@]5(C)CC[C@H](O)C(C)(C)[C@@H]5CC[C@]43C)[C@@H]2C1 . Value?
5.24

Quick check: pIC50 of COc1cc2c(cc1CC=C(C)C)C(=O)C[C@@H](c1ccc(O)cc1)O2 ?
5.37

---

Biological target: Liver carboxylesterase 1 (Homo sapiens, UniProt P23141)
Sequence (P23141 whole entry): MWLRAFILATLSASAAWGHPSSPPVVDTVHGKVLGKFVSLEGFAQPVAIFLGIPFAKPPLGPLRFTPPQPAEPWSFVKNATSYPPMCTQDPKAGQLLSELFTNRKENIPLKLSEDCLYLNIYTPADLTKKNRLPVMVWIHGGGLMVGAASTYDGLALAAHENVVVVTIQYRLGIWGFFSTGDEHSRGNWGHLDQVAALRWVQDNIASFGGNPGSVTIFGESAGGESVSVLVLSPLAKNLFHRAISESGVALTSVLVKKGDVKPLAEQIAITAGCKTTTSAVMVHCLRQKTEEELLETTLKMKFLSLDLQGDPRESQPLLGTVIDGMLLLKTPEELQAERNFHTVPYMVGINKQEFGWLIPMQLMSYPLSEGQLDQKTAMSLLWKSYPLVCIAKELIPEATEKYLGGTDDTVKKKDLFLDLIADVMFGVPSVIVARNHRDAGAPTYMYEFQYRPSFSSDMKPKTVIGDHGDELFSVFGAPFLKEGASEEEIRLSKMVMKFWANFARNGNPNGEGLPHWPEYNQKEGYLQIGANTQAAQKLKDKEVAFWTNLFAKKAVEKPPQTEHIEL
RECORDED METRIC: pIC50
Lab note: report pIC50 as minus log10 of the concentration in molar units, number only.

Endpoint output: pIC50 of CC(=O)O[C@H]1CC[C@]2(C)[C@H]3C(=O)C=C4[C@@H]5C[C@@](C)(C(=O)O)CC[C@]5(C)CC[C@@]4(C)[C@]3(C)CC[C@H]2C1(C)C . Value?
4.30

# get_value(readout='pIC50', item= O=[N+]([O-])c1ccc(OP(=O)(O)Oc2ccc([N+](=O)[O-])cc2)cc1 )
6.85

Endpoint output: pIC50 of CCOC(=O)[C@@]1(C)CC[C@]2(C)CC[C@]3(C)C(=CC[C@@H]4[C@@]5(C)CC[C@H](OC(=O)CCC(=O)O)C(C)(C)[C@@H]5CC[C@]43C)[C@@H]2C1 . Value?
4.69

---

The compounds below have reported pIC50 for Liver carboxylesterase 1 (Homo sapiens).
// scale note: pIC50 = -log10(conc_M); give the bare number

Answered cases to consult:
[[record]]
compound = "COc1cc2c(cc1CC=C(C)C)C(=O)C[C@@H](c1ccc(O)cc1)O2 [BAVACHININ A]"
tested_on = "Liver carboxylesterase 1 (Homo sapiens)"
recorded_number = 5.46

[[record]]
compound = "COC(=O)[C@@]1(C)CC[C@]2(C)CC[C@]3(C)C(=CC(=O)[C@@H]4[C@@]5(C)CC[C@H](O)C(C)(C)[C@@H]5CC[C@]43C)[C@@H]2C1"
tested_on = "Liver carboxylesterase 1 (Homo sapiens)"
recorded_number = 4.65

[[record]]
compound = "CN(C)CCOC(=O)[C@@]1(C)CC[C@]2(C)CC[C@]3(C)C(=CC(=O)[C@@H]4[C@@]5(C)CC[C@H](O)C(C)(C)[C@@H]5CC[C@]43C)[C@@H]2C1"
tested_on = "Liver carboxylesterase 1 (Homo sapiens)"
recorded_number = 5.04

[[record]]
compound = "CC1(C)[C@@H](O)CC[C@]2(C)[C@H]3CC=C4[C@@H]5C[C@@](C)(C(=O)O)CC[C@]5(C)CC[C@@]4(C)[C@]3(C)CC[C@@H]12"
tested_on = "Liver carboxylesterase 1 (Homo sapiens)"
recorded_number = 4.98

[[record]]
compound = "CC1(C)[C@@H](O)CC[C@]2(C)[C@H]3C(=O)C=C4[C@@H]5C[C@@](C)(C(N)=O)CC[C@]5(C)CC[C@@]4(C)[C@]3(C)CC[C@@H]12"
tested_on = "Liver carboxylesterase 1 (Homo sapiens)"
recorded_number = 5.16


Record CC1(C)[C@@H](O)CC[C@]2(C)[C@H]3C(=O)C=C4[C@@H]5C[C@@](C)(C(=O)O)CC[C@]5(C)CC[C@@]4(C)[C@]3(C)CC[C@@H]12 [ENOXOLONE] : what is its pIC50 with Liver carboxylesterase 1 (Homo sapiens)?
4.68

Request: pIC50, test system Liver carboxylesterase 1 (Homo sapiens), entry CCOC(=O)[C@@]1(C)CC[C@]2(C)CC[C@]3(C)C(=CC(=O)[C@@H]4[C@@]5(C)CC[C@H](O)C(C)(C)[C@@H]5CC[C@]43C)[C@@H]2C1
4.58
